These data points were gathered from patent US20230303690A1.

Molecular target: T1, human LAG3 expressed on cells (human, UniProt P18627 23-525)
T1 sequence (looked up): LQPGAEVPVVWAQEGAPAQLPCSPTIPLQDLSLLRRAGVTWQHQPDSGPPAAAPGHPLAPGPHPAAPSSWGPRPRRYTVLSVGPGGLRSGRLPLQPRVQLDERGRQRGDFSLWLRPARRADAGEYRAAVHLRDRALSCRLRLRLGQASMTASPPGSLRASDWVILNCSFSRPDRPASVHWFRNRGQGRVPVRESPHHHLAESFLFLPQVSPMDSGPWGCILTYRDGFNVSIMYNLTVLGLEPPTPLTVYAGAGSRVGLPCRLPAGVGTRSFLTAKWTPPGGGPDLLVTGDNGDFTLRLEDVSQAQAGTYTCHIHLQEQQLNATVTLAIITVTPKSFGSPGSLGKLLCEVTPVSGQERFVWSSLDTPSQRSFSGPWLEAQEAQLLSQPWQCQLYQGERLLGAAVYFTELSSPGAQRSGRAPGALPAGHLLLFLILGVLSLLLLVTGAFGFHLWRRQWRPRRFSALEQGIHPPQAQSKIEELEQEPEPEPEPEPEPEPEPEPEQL
Experiment: cell-based or functional assay
Property: IL-2, % of BMS, at 0.045724737 ug/mL; scope: individual binders
Give your result in % as a bare value.

Study these solved cases before continuing.
Query block: Using the record for sdAb No. 73 (VHH, Fc not described; also called sdAb 73; not shown: Fc part implied by anti-human Fc capture) VHH: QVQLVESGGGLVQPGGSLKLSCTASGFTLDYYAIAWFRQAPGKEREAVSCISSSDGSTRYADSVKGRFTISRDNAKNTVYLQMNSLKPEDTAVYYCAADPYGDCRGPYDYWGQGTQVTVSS , report its IL-2, % of BMS, at 0.045724737 ug/mL.
Result block: 3.63

Query block: And then sdAb No. 18 (VHH, Fc of the tested form not described; also called sdAb 18; not shown: Fc part implied by anti-human Fc capture) VHH: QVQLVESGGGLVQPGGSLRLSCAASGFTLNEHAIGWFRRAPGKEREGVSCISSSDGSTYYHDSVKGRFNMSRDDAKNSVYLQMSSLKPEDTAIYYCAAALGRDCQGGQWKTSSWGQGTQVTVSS , what is it?
Result block: 12.9

Query block: And then sdAb No. 20 (VHH, Fc of the tested form not described; also called sdAb 20; not shown: Fc part implied by anti-human Fc capture) VHH: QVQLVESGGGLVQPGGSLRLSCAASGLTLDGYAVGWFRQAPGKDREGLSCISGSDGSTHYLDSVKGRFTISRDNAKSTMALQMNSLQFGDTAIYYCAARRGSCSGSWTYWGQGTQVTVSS , what is it?
Result block: 3.55

Query block: And then sdAb No. 17 (VHH, Fc of the tested form not described; also called sdAb 17; not shown: Fc part implied by anti-human Fc capture and anti-human IgG1 Fc detection) VHH: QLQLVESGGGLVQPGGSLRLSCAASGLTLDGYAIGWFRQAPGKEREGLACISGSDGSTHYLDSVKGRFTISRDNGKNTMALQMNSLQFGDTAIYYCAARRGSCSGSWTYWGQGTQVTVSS , what is it?
Result block: 9.97

Continuing:
Query block: Using the record for sdAb No. 21 (VHH, Fc of the tested form not described; also called sdAb 21; not shown: Fc part implied by anti-human Fc capture) VHH: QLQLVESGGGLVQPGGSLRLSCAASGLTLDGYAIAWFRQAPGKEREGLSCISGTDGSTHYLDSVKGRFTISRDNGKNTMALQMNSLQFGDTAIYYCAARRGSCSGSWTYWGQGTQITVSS , report its IL-2, % of BMS, at 0.045724737 ug/mL.
Result block: 13.4
